B1: LINE1-full (parent)
chain: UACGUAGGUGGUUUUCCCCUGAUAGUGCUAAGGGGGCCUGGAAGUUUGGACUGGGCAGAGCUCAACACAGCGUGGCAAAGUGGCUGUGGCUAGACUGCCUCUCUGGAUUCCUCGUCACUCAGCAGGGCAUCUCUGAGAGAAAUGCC

Variants of: B1
testSummary: self-cleavage, relative activity (ratio to wild type); higher = more cleavage; in vitro, sequencing; the parent is a self-cleaving ribozyme
Label FALSE if self-cleavage falls below 1; label TRUE in every other case.

sequenceVariant: A67U U130C
className: FALSE
--
sequenceVariant: A30G A43G
className: FALSE
--
sequenceVariant: C3A U87A
className: FALSE
--
sequenceVariant: A24G G106A
className: FALSE
--
sequenceVariant: U112A U143A
className: TRUE
--
sequenceVariant: G7C U85A
className: FALSE
--
sequenceVariant: U26C A140G
className: TRUE
--
sequenceVariant: A42U U45A
className: FALSE
--
sequenceVariant: A6G U73C
className: TRUE
--
sequenceVariant: G35A A79U
className: TRUE
--
sequenceVariant: A2G A94G
className: FALSE
--
sequenceVariant: A124G A138U
className: TRUE
--
sequenceVariant: C56U C76U
className: FALSE
--
sequenceVariant: U73C U134G
className: TRUE
--
sequenceVariant: U91A A129U
className: FALSE
--
sequenceVariant: U26C C131A
className: FALSE
--
sequenceVariant: A64G A136G
className: FALSE
